Biological target: CBP (Homo sapiens)
Construct: host or cells: A549 CBP HiBit cells
Test: CBP degradation, HiBit technology in A549 CBP HiBit cells (24 h)
Assay type: cell-based
Settings: 24 hrs post treatment
Procedure: p300 and CBP degradation potency and Dmax were determined using in cell western (ICW) assay technology in H1299 cells or HiBit technology in A549 HiBit cells. A549 P300 HiBit and A549 CBP HiBit cells were plated in separate 384-well, TC treated, white-opaque, flat-bottomed microplate. […] After incubation, luminescent signal of each plate was measured using the Envision instrument (Perkin Elmer).
Test Readout: Dmax

Sample answers from the record:
Value sought: Dmax, system CBP (Homo sapiens), item "Cc1cc2c(N3CCCc4nc(-c5ccc(C(=O)NCC#Cc6ccc7occ([C@H]8CCC(=O)NC8=O)c7c6)nc5)ncc43)cc(C3CCOCC3)cc2n(C)c1=O" . Result: < 20%

// returns Dmax for Cc1c(-c2ccc(C(=O)NCC#Cc3ccc4occ(C5CCC(=O)NC5=O)c4c3)nc2)ncc2c(-c3ccc4c(c3)n(C)c(=O)n4C)cccc12 (stereo not shown) with CBP (Homo sapiens); value = < 20%

Attention now shifts to the item below.
The compound [2H]C1COCCC1([2H])c1cc(N2CCCc3nc(-c4ccc(C(=O)NCC#Cc5cc6c(C7CCC(=O)NC7=O)cccc6o5)nc4)ncc32)c2cc(C)c(=O)n(C)c2c1 (stereo not shown) on CBP (Homo sapiens): Dmax was < 20%

----------
target: p300 (Homo sapiens, UniProt Q09472); construct: host or cells: A549 P300 HiBit cells; assay: P300 degradation, HiBit technology in A549 P300 HiBit cells (2 h); assay type: cell-based; details: A549, A549 P300 HiBit cells, 2 hrs post treatment
Sequence (Q09472 whole entry): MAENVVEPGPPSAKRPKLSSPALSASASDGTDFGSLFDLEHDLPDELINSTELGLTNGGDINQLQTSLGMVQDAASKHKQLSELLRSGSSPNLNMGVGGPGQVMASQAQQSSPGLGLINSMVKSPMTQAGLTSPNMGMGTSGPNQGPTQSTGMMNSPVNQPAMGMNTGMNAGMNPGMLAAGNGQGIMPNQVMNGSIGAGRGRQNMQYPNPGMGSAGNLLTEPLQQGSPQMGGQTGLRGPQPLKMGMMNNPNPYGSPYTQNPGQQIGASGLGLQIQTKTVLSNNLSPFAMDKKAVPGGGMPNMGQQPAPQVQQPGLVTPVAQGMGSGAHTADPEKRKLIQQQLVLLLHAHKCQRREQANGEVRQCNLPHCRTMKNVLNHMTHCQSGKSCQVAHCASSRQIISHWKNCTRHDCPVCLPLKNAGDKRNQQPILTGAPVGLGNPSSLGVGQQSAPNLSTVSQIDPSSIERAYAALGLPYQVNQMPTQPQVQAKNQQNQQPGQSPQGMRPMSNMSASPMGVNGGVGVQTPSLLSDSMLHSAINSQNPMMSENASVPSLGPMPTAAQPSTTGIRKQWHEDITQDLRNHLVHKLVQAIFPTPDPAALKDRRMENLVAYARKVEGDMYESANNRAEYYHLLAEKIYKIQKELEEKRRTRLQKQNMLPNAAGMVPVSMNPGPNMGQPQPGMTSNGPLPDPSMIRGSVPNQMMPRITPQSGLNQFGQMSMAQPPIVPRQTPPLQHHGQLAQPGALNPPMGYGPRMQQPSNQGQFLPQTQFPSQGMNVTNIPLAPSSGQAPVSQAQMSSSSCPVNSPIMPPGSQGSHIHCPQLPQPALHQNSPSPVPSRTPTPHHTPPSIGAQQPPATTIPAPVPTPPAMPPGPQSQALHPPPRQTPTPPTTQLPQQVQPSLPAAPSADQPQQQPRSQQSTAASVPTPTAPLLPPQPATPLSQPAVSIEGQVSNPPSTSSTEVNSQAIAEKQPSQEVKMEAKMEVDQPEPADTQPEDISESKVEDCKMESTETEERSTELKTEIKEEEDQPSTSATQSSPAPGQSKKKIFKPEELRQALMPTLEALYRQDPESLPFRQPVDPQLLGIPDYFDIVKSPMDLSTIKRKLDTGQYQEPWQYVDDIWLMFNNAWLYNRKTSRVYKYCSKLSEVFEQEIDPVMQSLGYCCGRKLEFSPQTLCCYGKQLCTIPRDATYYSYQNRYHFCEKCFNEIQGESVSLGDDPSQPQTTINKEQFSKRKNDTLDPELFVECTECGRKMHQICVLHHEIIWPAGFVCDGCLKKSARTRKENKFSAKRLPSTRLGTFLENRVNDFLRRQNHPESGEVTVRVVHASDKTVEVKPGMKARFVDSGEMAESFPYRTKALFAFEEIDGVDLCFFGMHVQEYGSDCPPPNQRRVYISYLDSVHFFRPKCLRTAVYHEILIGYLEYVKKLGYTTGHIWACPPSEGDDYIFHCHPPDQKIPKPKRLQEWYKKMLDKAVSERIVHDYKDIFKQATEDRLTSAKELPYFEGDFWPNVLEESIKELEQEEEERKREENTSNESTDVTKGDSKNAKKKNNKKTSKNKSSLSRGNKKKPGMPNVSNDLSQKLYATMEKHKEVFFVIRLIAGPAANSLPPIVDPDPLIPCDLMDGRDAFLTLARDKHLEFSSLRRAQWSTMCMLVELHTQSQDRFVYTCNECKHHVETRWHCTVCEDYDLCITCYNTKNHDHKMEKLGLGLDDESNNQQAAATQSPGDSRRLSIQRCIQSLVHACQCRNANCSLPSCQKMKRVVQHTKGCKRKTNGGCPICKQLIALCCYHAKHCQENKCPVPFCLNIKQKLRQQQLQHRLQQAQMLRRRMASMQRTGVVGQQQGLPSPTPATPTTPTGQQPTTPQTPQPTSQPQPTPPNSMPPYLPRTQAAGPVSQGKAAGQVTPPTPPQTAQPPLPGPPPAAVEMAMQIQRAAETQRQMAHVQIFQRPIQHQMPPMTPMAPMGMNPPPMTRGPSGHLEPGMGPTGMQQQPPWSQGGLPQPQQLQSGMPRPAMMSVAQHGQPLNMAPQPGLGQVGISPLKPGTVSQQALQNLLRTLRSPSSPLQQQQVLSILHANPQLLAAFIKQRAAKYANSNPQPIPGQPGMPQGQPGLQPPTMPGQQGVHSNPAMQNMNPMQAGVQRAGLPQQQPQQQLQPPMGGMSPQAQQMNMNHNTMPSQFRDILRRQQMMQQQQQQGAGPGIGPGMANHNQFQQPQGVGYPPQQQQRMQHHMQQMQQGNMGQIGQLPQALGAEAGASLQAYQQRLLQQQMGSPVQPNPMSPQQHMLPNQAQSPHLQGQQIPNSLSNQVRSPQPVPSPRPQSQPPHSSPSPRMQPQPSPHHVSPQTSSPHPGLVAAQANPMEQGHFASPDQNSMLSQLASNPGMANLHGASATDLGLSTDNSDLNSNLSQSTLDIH
Test Readout: Dmax

The cases that follow already have their Dmax on record.
// field: Dmax; key: CC(C)c1cc(-c2cccc3cc(-c4ccc(C(=O)NCC#Cc5ccc6c(c5)N(C5CCC(=O)NC5=O)CC6)nc4)ncc23)cc2c1n(C)c(=O)n2C (stereo not drawn) ; value = > 80%

// recorded Dmax for CC(C)c1cc(N2CCOc3cc(-c4ccc(C(=O)NCC#Cc5ccc6occ(C7CCC(=O)NC7=O)c6c5)nc4)c(F)cc32)cc2c1n(C)c(=O)n2C (stereo not drawn) : > 80%

// next item, Dmax requested
Lab note: measured Dmax of Cc1cc2c(N3CCOc4cc(-c5ccc(C(=O)NCC#Cc6ccc7occ(C8CCC(=O)NC8=O)c7c6)nc5)ncc43)cc(F)cc2n(C)c1=O (stereo not drawn) was > 80%

----------
Dmax values by entry
biological target: CBP (Homo sapiens, UniProt Q92793); construct: host or cells: A549 CBP HiBit cells; experiment: CBP degradation, HiBit technology in A549 CBP HiBit cells (24 h); type: cell-based; conditions: 24 hrs post treatment
Sequence (Q92793 whole entry): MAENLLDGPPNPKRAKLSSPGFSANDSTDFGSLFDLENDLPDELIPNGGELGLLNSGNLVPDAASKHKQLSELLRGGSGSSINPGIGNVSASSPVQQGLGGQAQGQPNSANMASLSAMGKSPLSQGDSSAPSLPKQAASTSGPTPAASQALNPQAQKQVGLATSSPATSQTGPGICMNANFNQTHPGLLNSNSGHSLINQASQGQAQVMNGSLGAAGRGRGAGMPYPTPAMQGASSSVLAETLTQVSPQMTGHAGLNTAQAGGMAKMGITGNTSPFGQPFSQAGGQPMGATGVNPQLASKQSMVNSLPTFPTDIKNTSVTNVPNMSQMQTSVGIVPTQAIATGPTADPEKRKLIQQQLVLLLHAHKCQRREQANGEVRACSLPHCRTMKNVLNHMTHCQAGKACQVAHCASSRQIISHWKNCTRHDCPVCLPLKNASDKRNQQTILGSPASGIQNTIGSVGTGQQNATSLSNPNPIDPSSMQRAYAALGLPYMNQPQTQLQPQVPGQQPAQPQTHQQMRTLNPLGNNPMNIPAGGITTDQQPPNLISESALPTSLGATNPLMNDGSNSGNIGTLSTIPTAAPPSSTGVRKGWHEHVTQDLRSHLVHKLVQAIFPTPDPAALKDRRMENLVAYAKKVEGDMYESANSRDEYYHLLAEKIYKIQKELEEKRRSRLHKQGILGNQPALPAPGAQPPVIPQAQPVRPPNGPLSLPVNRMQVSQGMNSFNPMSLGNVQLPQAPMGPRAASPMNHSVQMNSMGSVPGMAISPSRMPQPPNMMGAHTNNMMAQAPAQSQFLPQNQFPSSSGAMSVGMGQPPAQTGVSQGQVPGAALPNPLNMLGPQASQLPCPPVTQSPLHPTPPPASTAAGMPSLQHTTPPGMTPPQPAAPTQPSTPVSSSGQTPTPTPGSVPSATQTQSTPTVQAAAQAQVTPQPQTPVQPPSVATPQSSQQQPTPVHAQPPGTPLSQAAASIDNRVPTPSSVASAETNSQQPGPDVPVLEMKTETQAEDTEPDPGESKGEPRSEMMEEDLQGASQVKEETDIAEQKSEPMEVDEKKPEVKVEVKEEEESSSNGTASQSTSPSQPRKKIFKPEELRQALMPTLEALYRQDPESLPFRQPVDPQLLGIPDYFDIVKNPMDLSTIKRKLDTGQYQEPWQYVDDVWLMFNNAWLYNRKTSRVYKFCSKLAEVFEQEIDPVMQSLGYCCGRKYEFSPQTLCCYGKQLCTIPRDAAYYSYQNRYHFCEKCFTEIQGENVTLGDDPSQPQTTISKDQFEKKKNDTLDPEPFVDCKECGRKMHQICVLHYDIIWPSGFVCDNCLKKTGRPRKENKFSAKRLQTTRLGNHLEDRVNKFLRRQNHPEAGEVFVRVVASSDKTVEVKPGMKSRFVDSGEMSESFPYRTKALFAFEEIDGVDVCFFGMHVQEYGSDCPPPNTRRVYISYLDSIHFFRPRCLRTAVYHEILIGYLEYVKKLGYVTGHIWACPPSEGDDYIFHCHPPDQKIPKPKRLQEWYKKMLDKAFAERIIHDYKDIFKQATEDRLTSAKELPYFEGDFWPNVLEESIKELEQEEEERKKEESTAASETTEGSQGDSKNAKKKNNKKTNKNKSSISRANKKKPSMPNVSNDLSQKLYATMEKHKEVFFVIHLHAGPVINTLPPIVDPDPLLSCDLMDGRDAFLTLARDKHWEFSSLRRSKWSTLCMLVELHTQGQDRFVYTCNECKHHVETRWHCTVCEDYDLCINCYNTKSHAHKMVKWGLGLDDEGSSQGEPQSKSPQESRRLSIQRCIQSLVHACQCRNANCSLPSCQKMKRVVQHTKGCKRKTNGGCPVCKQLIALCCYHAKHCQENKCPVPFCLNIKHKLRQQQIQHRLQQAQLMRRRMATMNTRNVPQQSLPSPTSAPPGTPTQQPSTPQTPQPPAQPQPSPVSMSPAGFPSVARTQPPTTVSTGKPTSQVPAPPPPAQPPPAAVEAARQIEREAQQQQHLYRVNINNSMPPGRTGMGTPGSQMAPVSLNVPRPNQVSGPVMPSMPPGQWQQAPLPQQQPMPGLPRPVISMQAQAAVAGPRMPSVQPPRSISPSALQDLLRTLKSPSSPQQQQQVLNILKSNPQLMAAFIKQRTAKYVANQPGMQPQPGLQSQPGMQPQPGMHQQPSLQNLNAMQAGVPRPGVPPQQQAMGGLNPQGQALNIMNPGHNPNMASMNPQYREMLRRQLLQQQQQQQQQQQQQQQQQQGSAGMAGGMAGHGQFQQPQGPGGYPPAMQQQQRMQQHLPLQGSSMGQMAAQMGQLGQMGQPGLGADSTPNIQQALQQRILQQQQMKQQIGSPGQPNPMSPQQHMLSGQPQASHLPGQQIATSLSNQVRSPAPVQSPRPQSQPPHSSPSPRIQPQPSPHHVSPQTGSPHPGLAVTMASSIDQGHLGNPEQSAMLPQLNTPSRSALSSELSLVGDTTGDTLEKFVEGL

Recorded results for 5 compounds are shown here.
// Dmax lookup, compound = Cc1cc2c(N3CCOc4cc(-c5ccc(C(=O)NCC#Cc6ccc7occ(C8CCC(=O)NC8=O)c7c6)nc5)ncc43)cc(F)cc2n(C)c1=O (stereo not drawn) [Example B123] , result: < 20%

Query COc1cc(-c2ncc3c(n2)CCCN3c2cc(C3CCOCC3)cc3c2cc(C)c(=O)n3C)cnc1C(=O)NCC#Cc1ccc2occ(C3CCC(=O)NC3=O)c2c1 (stereo not drawn) [Example B24] yields Dmax of < 20%

Note to self: Dmax recorded for CC(C)c1cc(-c2cccc3cc(-c4ccc(C(=O)NCC#Cc5cc6c(C7CCC(=O)NC7=O)coc6cc5F)nc4)ncc23)cc2c1n(C)c(=O)n2C (stereo not drawn) [Example A234] was < 20%

Looking up Cn1c(=O)n(C)c2cc(N3CCOc4nc(-c5ccc(C(=O)NCC#Cc6cc7cccc(C8CCC(=O)NC8=O)c7o6)nc5)ncc43)ccc21 (stereo not drawn) [Example A247] , I found its Dmax recorded as < 20%

// recorded Dmax for Cc1cc2c(N3CCCc4nc(-c5ccc(C(=O)NCC#Cc6cc7c(C8CCC(=O)NC8=O)nccc7o6)nc5)ncc43)cccc2n(C)c1=O (stereo not drawn) [Example B106] : < 20%

More entries:
Value of Dmax reported for the compound CC(C)c1cc(-c2cn(C)c(=O)c3cc(-c4ccc(C(=O)NCC#Cc5ccc6occ(C7CCC(=O)NC7=O)c6c5)nc4)ncc23)cc2c1n(C)c(=O)n2C (stereo not drawn) [Example A97] is 40 to 59%

----------
molecular target: p300 (Homo sapiens, UniProt Q09472); construct: host or cells: A549 P300 HiBit cells; experiment: P300 degradation, HiBit technology in A549 P300 HiBit cells (2 h); type: cell-based; details: A549, A549 P300 HiBit cells, 2 hrs post treatment
# key: entry, value: Dmax

Completed entries (count: 4):
Looking up Cn1c(=O)n(C)c2c(C3CCOCC3)nc(N3CCCc4nc(-c5ccc(C(=O)NCC#Cc6ccc7occ(C8CCC(=O)NC8=O)c7c6)nc5)ncc43)cc21 (centres unmarked) , I found its Dmax recorded as < 20%

The compound identified as Cc1cc2c(N3CCCc4nc(-c5ccc(C(=O)NCC#Cc6ccc7occ(C8CCC(=O)NC8=O)c7c6)nc5)ncc43)nc(N3CC[Si](C)(C)CC3)cc2n(C)c1=O (centres unmarked) registered its Dmax at 60 to 79%

The reported Dmax of the compound CCc1cc(Oc2ccc(-c3cnc(C(=O)NCC#Cc4cccc(NC5CCC(=O)NC5=O)c4)c(C)c3)nc2)c2cc(C)c(=O)n(C)c2c1 (centres unmarked) was < 20%

Just so you know, measured Dmax for Cc1cc2c(N3CCOc4cc(-c5ccc(C(=O)NCC#Cc6ccc7occ(C8CCC(=O)NC8=O)c7c6)nc5)c(F)cc43)cc(C3CCOCC3)cc2n(C)c1=O (centres unmarked) came out at > 80%

More entries:
So for Cc1cc(-c2cc3cccc(-c4cc5c(c(N6CC7CCC(C6)O7)n4)n(C)c(=O)n5C)c3cn2)cnc1C(=O)NCC#Cc1ccc2occ(C3CCC(=O)NC3=O)c2c1 (centres unmarked) , the logged Dmax turned out to be > 80%

The measured Dmax associated with Cc1cc(-c2ncc3c(n2)OCCN3c2ccc3c(c2)n(C)c(=O)n3C)cnc1C(=O)NCC#Cc1cc2c(C3CCC(=O)NC3=O)nccc2o1 (centres unmarked) reads > 80%

Field Dmax (entry Cc1cc2c(N3CCOc4cc(-c5ccc(C(=O)NCC#Cc6ccc7occ(C8CCC(=O)NC8=O)c7c6)nc5)ccc43)cc(C3CCOCC3)cc2n(C)c1=O (centres unmarked) ) reads > 80%

Lookup result for Cc1cc2c(N3CCCc4nc(-c5ccc(C(=O)NCC#Cc6ccc7c(c6)N(C6CCC(=O)NC6=O)CCCC7)nc5)ncc43)cc(C3CCOCC3)cc2n(C)c1=O (centres unmarked) ; measured Dmax: < 20%

# compound CC(C)c1cc(-c2cccc3cc(-c4ccc(C(=O)NCC#Cc5cc6c(C7CCC(=O)NC7=O)nccc6s5)nc4)ncc23)cc2c1n(C)c(=O)n2C (centres unmarked) ; its Dmax = > 80%

Quick note, Dmax for Cc1cc(-n2ccc(N(C)c3cc(C(C)C)c4c(c3)n(C)c(=O)n4C)cc2=O)cnc1C(=O)NCC#Cc1cccc(NC2CCC(=O)NC2=O)c1 (centres unmarked) landed at > 80%

# Dmax of CC(C)c1cc(C2=CC(C)(C)Oc3cc(-c4ccc(C(=O)NCC#Cc5ccc6occ(C7CCC(=O)NC7=O)c6c5)nc4)ncc32)cc2c1n(C)c(=O)n2C (centres unmarked) = > 80%

----------
molecular target: p300 (Homo sapiens, UniProt Q09472); construct: host or cells: A549 P300 HiBit cells; assay: P300 degradation, HiBit technology in A549 P300 HiBit cells (2 h); type: cell-based; settings: A549 P300 HiBit cells, 2 hrs post treatment
Test Readout: DC50

Lab book: DC50 of Cn1c(=O)n(C)c2cc(N3CCOc4nc(-c5ccc(C(=O)NCC#Cc6ccc7nnn(C8CCC(=O)NC8=O)c7c6)nc5)ncc43)ccc21 (centres unmarked) noted as 1 to 9.9 nM

The compound listed as Cc1cc(-c2ncc(N(C)c3cc(C4CCOCC4)c4c(c3)n(C)c(=O)n4C)c(N(C)C)n2)cnc1C(=O)NCC#Cc1cc2c(C3CCC(=O)NC3=O)cccc2o1 (centres unmarked) has a reported DC50 of > 1000 nM

Lab note: COc1cc(-c2ncc3c(n2)CCCN3c2cccc3c2cc(C)c(=O)n3C)cnc1C(=O)NCC#Cc1ccc2occ(C3CCC(=O)NC3=O)c2c1 (centres unmarked) gave DC50 of 1 to 9.9 nM

The compound listed as "Cc1cc(-c2ncc(N(C)c3cc(C4CCOCC4)c4c(c3)n(C)c(=O)n4C)cn2)cnc1C(=O)NCC#Cc1ccc2occ([C@@H]3CCC(=O)NC3=O)c2c1" shows DC50 equal to 1 to 9.9 nM
